- testedTarget: GRASP, Q7Z6J2
- Sequence (Q7Z6J2 96-193): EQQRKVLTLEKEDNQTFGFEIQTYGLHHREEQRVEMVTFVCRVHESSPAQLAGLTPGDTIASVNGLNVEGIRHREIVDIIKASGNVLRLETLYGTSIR
- assayDetails: holdup assay
- Parameters: key: below the threshold = too weak to quantify, mostly under pKd 3.1 to 4
- setupConditions: plain residues with an end cap or a label only (N-terminal biotin on a linker: ado-ado)
propertyLabel: pKd
The answer should be written as a number, with no unit following it.

INSERT INTO results (binder, quantitativereadout) VALUES
  ('RDPPAEWTRV [PTPN18, Q99952]', 4.66),
  ('TGLWKHETTV [ADGRA3, Q8IWK6]', 3.55);

Switching to the query record.
### Prompt Look up pKd: DFLSTFHIRI [CIB2, O75838]
### Response 3.47
